Documented relative viability across a set of compounds
system: WM115; experiment: relative viability (cell count relative to DMSO-treated control) (fraction of DMSO control); higher = more viable cells / less drug effect; details: 48 h; 0.01 µM
Simply state the number, no unit and no words.

compound.string	quantity.measured	reported.result
CCCS(=O)(=O)Nc1ccc(F)c(C(=O)c2c[nH]c3ncc(-c4ccc(Cl)cc4)cc23)c1F	relative viability	1.24
Cc1ccc(NC(=O)c2cccc(C(C)(C)C#N)c2)cc1Nc1ccc2ncn(C)c(=O)c2c1	relative viability	1.19
Cn1cnc2c(F)c(Nc3ccc(Br)cc3Cl)c(C(=O)NOCCO)cc21	relative viability	1.39
CCCS(=O)(=O)Nc1ccc(F)c(C(=O)c2c[nH]c3ncc(Cl)cc23)c1F	relative viability	1.37

# evaluate next
[in] Data request, read-out relative viability, for CN(C)CCOc1ccc(-c2nc(-c3ccncc3)c(-c3ccc4c(c3)CC/C4=N\O)[nH]2)cc1
[out] 1.47

====

tested on: WM1552C; assay: apoptotic fraction of cells (caspase-3 NucView488 positive); higher = more apoptosis; details: 72 h; 0.1 µM
Assign class by apoptotic fraction of cells: not lower than 0.07 means 1; lower than 0.07 means -1.

Look over these answered cases.
compound	classification
Cn1cnc2c(F)c(Nc3ccc(Br)cc3Cl)c(C(=O)NOCCO)cc21 [Selumetinib]	1
CCCS(=O)(=O)Nc1ccc(F)c(C(=O)c2c[nH]c3ncc(-c4ccc(Cl)cc4)cc23)c1F [Vemurafenib]	-1
CN(C)CCOc1ccc(-c2nc(-c3ccncc3)c(-c3ccc4c(c3)CC/C4=N\O)[nH]2)cc1	-1
CCCS(=O)(=O)Nc1ccc(F)c(C(=O)c2c[nH]c3ncc(Cl)cc23)c1F [PLX4720]	-1

Would you kindly look at the next entry?
[in] Reported apoptotic fraction of cells reaches at least 0.07 for Cc1ccc(NC(=O)c2cccc(C(C)(C)C#N)c2)cc1Nc1ccc2ncn(C)c(=O)c2c1 [AZ628] ?
[out] 1

====

tested on: MZ7MEL; experiment: relative viability (cell count relative to DMSO-treated control) (fraction of DMSO control); higher = more viable cells / less drug effect; details: 24 h; 1 µM
Documented relative viability across a set of compounds

[in] Data request, read-out relative viability, for Cn1cnc2c(F)c(Nc3ccc(Br)cc3Cl)c(C(=O)NOCCO)cc21 [Selumetinib]
[out] 0.997

[in] Data request, read-out relative viability, for CN(C)CCOc1ccc(-c2nc(-c3ccncc3)c(-c3ccc4c(c3)CC/C4=N\O)[nH]2)cc1
[out] 1.13

[in] Data request, read-out relative viability, for Cc1ccc(NC(=O)c2cccc(C(C)(C)C#N)c2)cc1Nc1ccc2ncn(C)c(=O)c2c1 [AZ628]
[out] 0.945

[in] Data request, read-out relative viability, for CCCS(=O)(=O)Nc1ccc(F)c(C(=O)c2c[nH]c3ncc(-c4ccc(Cl)cc4)cc23)c1F [Vemurafenib]
[out] 1.1

[in] Data request, read-out relative viability, for CCCS(=O)(=O)Nc1ccc(F)c(C(=O)c2c[nH]c3ncc(Cl)cc23)c1F [PLX4720]
[out] 0.956

====

test system: MMACSF; experiment: apoptotic fraction of cells (caspase-3 NucView488 positive); higher = more apoptosis; details: 48 h; 1 µM
Documented apoptotic fraction of cells across a set of molecules
Simply state the number, no unit and no words.

Examples with their reported apoptotic fraction of cells follow.
compound.string	apoptotic fraction of cells
CCCS(=O)(=O)Nc1ccc(F)c(C(=O)c2c[nH]c3ncc(-c4ccc(Cl)cc4)cc23)c1F	0.0573
CN(C)CCOc1ccc(-c2nc(-c3ccncc3)c(-c3ccc4c(c3)CC/C4=N\O)[nH]2)cc1	0.0889
CCCS(=O)(=O)Nc1ccc(F)c(C(=O)c2c[nH]c3ncc(Cl)cc23)c1F	0.0555

[in] Data request, read-out apoptotic fraction of cells, for Cc1ccc(NC(=O)c2cccc(C(C)(C)C#N)c2)cc1Nc1ccc2ncn(C)c(=O)c2c1
[out] 0.159

[in] Data request, read-out apoptotic fraction of cells, for Cn1cnc2c(F)c(Nc3ccc(Br)cc3Cl)c(C(=O)NOCCO)cc21
[out] 0.14
